FYI, the data here is from patent US20260167622A1.

target: KRAS G12V protein in SW620 cells (Homo sapiens, UniProt P01116, G12V); construct: endogenous in cells; host or cells: SW620; test: KRAS degradation assay (Western Blot) in SW620 cells; type: cell-based; settings: SW-620, 24 h
Sequence (P01116 1-188 isoform P01116-2 G12V): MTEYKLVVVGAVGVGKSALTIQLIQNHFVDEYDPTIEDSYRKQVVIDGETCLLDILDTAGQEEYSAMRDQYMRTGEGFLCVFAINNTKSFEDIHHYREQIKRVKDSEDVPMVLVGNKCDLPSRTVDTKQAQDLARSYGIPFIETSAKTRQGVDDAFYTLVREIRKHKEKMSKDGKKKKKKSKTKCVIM
VALUE_TYPE: Dmax (%)

C#Cc1c(F)ccc2cc(O)cc(-c3ncc4c(N5CCC[C@@](C)(O)C5)nc(OC[C@H](C)CN5CCN(CC6CCC7(CC6)CCN(C(=O)c6cc(N8CCC(=O)NC8=O)c(C)cc6F)CC7)CC5)nc4c3F)c12 ... 100
C#Cc1c(F)ccc2cc(O)cc(-c3ncc4c(N5CCC[C@@](C)(O)C5)nc(OC[C@H](C)CN5CCN(CC6CCC7(CC6)CCN(C(=O)c6ccc(OC)c(N8CCC(=O)NC8=O)c6)CC7)CC5)nc4c3F)c12 ... 100
